Reported growth values are given for each entry in this list.
Tested on: MCF7 breast
Assay: NCI-60 one-dose screen, 48 h (100 = growth as untreated, 0 = no growth, -100 = all killed)
Settings: 10 µM unless noted
About 83,000 compounds went through this panel and 20% of them were active in at least one assay; those are over-represented in the sample as a whole. Active and inactive are the calls of the source. How the source made its calls: active means growth percent below 10; inactive means the rest.

The following compounds have reported results that may help.
CC(=O)OC1CCC2(C)C(=CC3C4CCC(=O)C4(C)CCC32)C1 (centres undefined) : 97.6% (inactive)
Cc1ccc2c(c1)Sc1c(ccc3ccccc13)N2 : 56.5% (inactive)
COC(=O)[C@]12CC[C@@H](C)[C@H](C)[C@@H]1C1=CC[C@@H]3[C@@]4(C)C(C=O)=C[C@@](C)(COC(C)=O)[C@@H]4C(=O)C[C@@]3(C)[C@]1(C)CC2 : 22.7% (inactive)

The value of growth measured for the compound COc1ccc(NC(=O)CSc2nc(C)c(C(C)=O)n2-c2ccc(Cl)cc2)cc1 turned out to be 92.9% (inactive)

The value of growth measured for the compound COc1ccc(-c2cc(-c3cc(OC)ccc3OC)nc(SCC(=O)c3ccccc3)c2C#N)cc1 turned out to be 98.3% (inactive)

The value of growth measured for the compound Cc1ccc2nc(NC(=O)CSc3nc(-c4ccccc4)c(C#N)c(=O)n3Cc3ccccc3)sc2c1 turned out to be 86.2% (inactive)

The value of growth measured for the compound Cc1ccc2nc(NC(=O)CSc3nc(Nc4ccc([N+](=O)[O-])cc4)c(C#N)c(-c4ccccc4)n3)sc2c1 turned out to be 87.1% (inactive)

The value of growth measured for the compound O=C1Nc2ccc(F)cc2C12Nc1cc(Cl)ccc1S2 (centres undefined) turned out to be 60.3% (inactive)

The value of growth measured for the compound COc1ccc(-c2nc3ccc4[nH]ncc4c3c3c2CCCC3)cc1B(O)O turned out to be 60.1% (inactive)

====

System: UACC-257 melanoma
Assay: NCI-60 one-dose screen, 48 h
Conditions: 10 µM unless noted
The panel holds about 83,000 compounds, 20% with a hit somewhere; the sample as a whole holds those more often. The source made the active and inactive calls. How the source made its calls: active means growth percent below 10; inactive means the rest.
Please reply with one of these outcomes: active, inactive

CN1C(=O)N(C)C2C1NN=c1s/c(=C\c3ccccc3)c(=O)n12 (centres undefined) : inactive
CC(C)(C)CC(C)(C)Nc1c(-c2ccncc2)nc2cnccn12 : inactive
COc1ccc(C(=NN=C(N)N)c2ccc(OC)cc2)cc1 : inactive

Q. State the result this test recorded for Cc1cc(=O)oc2c1ccc1oc(C#N)c(C)c12 .
A. inactive

Q. State the result this test recorded for Nc1cc2c3c(cccc3c1)C(=O)N(CCN1CCCC1)C2=O .
A. inactive

Q. State the result this test recorded for COc1cc(N=Nc2ccc(N)cc2)c(OC)cc1N=Nc1ccccc1.[Cl][Zn][Cl] .
A. inactive

====

System: NCI-H322M lung
Assay: NCI-60 one-dose screen, 48 h (100 = growth as untreated, 0 = no growth, -100 = all killed)
Conditions: 10 µM unless noted
This is part of a sample that, as a whole, favours compounds with a hit. Of some 83,000 tested, about 20% had one in any assay. The source made the active and inactive calls. How the source made its calls: active means growth percent below 10; inactive means the rest.
ENDPOINT_NAME: growth

The following compounds have reported results that may help.
N#Cc1c(N)nc(NCCO)nc1-c1ccc(F)cc1 : 102% (inactive)
COc1ccc(-c2[nH]c(=S)n(C(CC3(C)NCC(=O)N3n3c(-c4ccccc4)cc(C)nc3=S)c3ccc(OC)cc3)c(=O)c2Br)cc1 (centres undefined) : 82.2% (inactive)

Would you kindly look at the next entry?
The value of growth measured for the compound COc1cccc(-c2nn(-c3ccccc3)cc2-c2ccnc(NCCNC(=O)Nc3ccccc3)c2)c1 turned out to be 89.8% (inactive)

====

System: OVCAR-5 ovarian
Experiment: NCI-60 one-dose screen, 48 h (100 = growth as untreated, 0 = no growth, -100 = all killed)
Conditions: 10 µM unless noted
The panel holds about 83,000 compounds, 20% with a hit somewhere; the sample as a whole holds those more often.
ENDPOINT_NAME: growth (%)
All answers are understood in %, so give the number only.

The following compounds have reported results that may help.
O=C(CSc1nnc(-c2ccc(NC(=O)c3cccnc3)cc2)o1)Nc1cccc(Br)c1 : 99.3
Cc1ccc(C(=O)C2=C(O)C(=O)N(Cc3cccnc3)C2c2ccccc2F)o1 (centres undefined) : 101
O=C1C=C[C@]2(C[C@@H](c3cccc(C(F)(F)F)c3)O[C@@H](c3cccc(C(F)(F)F)c3)O2)O1 : 86.2

The value of growth measured for the compound COc1ccccc1NC(=O)N/C(N)=N/c1nc2ccccc2s1 turned out to be 34.8

====

System: MCF7 breast
Assay: NCI-60 one-dose screen, 48 h (100 = growth as untreated, 0 = no growth, -100 = all killed)
Conditions: 10 µM unless noted
This is part of a sample that, as a whole, favours compounds with a hit. Of some 83,000 tested, about 20% had one in any assay.
ENDPOINT_NAME: growth (%)
All answers are understood in %, so give the number only.

NNC(=O)c1nc(N)n(-c2ccc(S(N)(=O)=O)cc2)n1 : 102

The value of growth measured for the molecule NC(N)=NN=C(c1ccccc1)c1ccccc1 turned out to be 16.3

The value of growth measured for the molecule CC(C)Sc1nc(NNC(N)=S)c(C#N)c(-c2ccc(F)cc2)n1 turned out to be 99.1

The value of growth measured for the molecule C[C@H]1[C@H]2[C@H]3CC[C@@H]4[C@@]5(C)C/C(=C/c6ccco6)C(=O)C(C)(C)[C@@H]5CC[C@@]4(C)[C@]3(C)CC[C@]23CO[C@]1(C)[C@@H](C(=O)/C=C\c1ccco1)C3 turned out to be 88.8

The value of growth measured for the molecule CC(C)C(=O)Nc1n[nH]c2cc(-c3cccc(NS(=O)(=O)C4CC4)c3)ccc12 turned out to be 33.2

The value of growth measured for the molecule C=C(C)[C@@H]1CC[C@]2(C)[C@H](CC=C3[C@@H]4CC(C)(C)CC[C@]4(C(N)=O)CC[C@]32C)[C@@]1(C)CCC#N turned out to be 6.71

The value of growth measured for the molecule COc1cccc(/C=C/C(=O)c2c(C)nc3ccccc3c2/C=C/c2ccc(C)cc2)c1OC turned out to be 13.8

The value of growth measured for the molecule Cc1cc(NCc2cc(Nc3ccnc4cc(Cl)ccc34)ccc2F)nc(Cl)n1 turned out to be 30

The value of growth measured for the molecule OC(c1cccc(-n2ccc(C(F)(F)F)n2)c1)c1cnccc1NC1CCCCCC1 (centres undefined) turned out to be -14.4

====

Reported growth values are given for each entry in this list.
Test system: NCI-H460 lung
Test: NCI-60 one-dose screen, 48 h (100 = growth as untreated, 0 = no growth, -100 = all killed)
Settings: 10 µM unless noted
Protocol: Growth inhibition of the NCI-H460 human Non-Small Cell Lung tumor cell line is measured as a screen for anti-cancer activity. Cells are grown in 96 well plates and exposed to the test compound for 48 hours. Compounds are tested at a single concentration, which is 10^-5 M for most compounds. The reported endpoint is percent growth (GI% or GIPRCNT), where numbers from 0 - 100% represent growth inhibition, and numbers from -100% - 0 represent cell death. […]
This is part of a sample that, as a whole, favours compounds with a hit. Of some 83,000 tested, about 20% had one in any assay. Activity calls are given as the source filed them. The calls were made as follows: active = growth percent below 10; inactive = the rest.

The following compounds have reported results that may help.
Nc1n[nH]c2cc(F)c([C@@H]3Nc4c(F)cc5[nH]ncc5c4[C@H]4C5CCC(C5)[C@@H]34)cc12 (stereo partly specified) : 2.33% (active)
FC(F)(F)c1cc(Nc2ccc3cc(OCCCN4CCOCC4)ccc3n2)ccc1Cl : 6.76% (active)
CCCc1cc2c(=O)c(C(=O)OC)c[nH]c2cc1N(CC)CC : 102% (inactive)

The value of growth measured for the compound Cc1ccc(-c2cc3c(cc2O)C2CCCCC2(N2CCOCC2)O3)cc1 (stereo unspecified) turned out to be 103% (inactive)

The value of growth measured for the compound O=C(/C=C/c1ccc(Cl)nc1)c1ccc(Cl)cc1Cl turned out to be 98% (inactive)

The value of growth measured for the compound CC1=C(SCCC(=O)OC(C[Se]C2=C(C)C(=O)c3ccccc3C2=O)C(=O)NCCCCCC(=O)OCc2ccccc2)C(=O)c2ccccc2C1=O (stereo unspecified) turned out to be 10.9% (inactive)

The value of growth measured for the compound C#CCOc1nc(C)cc(C)c1C#N turned out to be 102% (inactive)

The value of growth measured for the compound COc1ccc(C(=NN=C(N)N)c2ccc(OC)cc2)cc1 turned out to be 29.8% (inactive)

The value of growth measured for the compound COc1ccc(CNC(=O)C(O)C(Cc2ccccc2)NC(=O)c2[nH]c3ccccc3c(=O)c2C)cc1OC (stereo unspecified) turned out to be 103% (inactive)

The value of growth measured for the compound COc1cc(CCC[P+](c2ccccc2)(c2ccccc2)c2ccccc2)cc2c1OCO2 turned out to be 37.9% (inactive)

The value of growth measured for the compound Cc1ccc(NS(=O)(=O)c2ccc3c(c2)C2OCCC2C(c2ccc(C(=O)C(C)C)cc2)N3)cc1C (stereo unspecified) turned out to be 31.7% (inactive)

The value of growth measured for the compound O=c1c2c3c(sc2n2c(-c4cc(-c5ccccc5)nn4-c4ccccc4)nnc2n1Cc1ccccc1)CCCC3 turned out to be 106% (inactive)

The value of growth measured for the compound Cn1ccc2c(c1=O)C(=O)c1nccc3c1c-2nc1ccccc13 turned out to be -74.7% (active)
